Data origin: patent US20220204479A1

Data export: IC50 values recorded with hERG channels (CHO cell line stably expressing hERG) (Homo sapiens).
Sequence (Q12809 whole entry): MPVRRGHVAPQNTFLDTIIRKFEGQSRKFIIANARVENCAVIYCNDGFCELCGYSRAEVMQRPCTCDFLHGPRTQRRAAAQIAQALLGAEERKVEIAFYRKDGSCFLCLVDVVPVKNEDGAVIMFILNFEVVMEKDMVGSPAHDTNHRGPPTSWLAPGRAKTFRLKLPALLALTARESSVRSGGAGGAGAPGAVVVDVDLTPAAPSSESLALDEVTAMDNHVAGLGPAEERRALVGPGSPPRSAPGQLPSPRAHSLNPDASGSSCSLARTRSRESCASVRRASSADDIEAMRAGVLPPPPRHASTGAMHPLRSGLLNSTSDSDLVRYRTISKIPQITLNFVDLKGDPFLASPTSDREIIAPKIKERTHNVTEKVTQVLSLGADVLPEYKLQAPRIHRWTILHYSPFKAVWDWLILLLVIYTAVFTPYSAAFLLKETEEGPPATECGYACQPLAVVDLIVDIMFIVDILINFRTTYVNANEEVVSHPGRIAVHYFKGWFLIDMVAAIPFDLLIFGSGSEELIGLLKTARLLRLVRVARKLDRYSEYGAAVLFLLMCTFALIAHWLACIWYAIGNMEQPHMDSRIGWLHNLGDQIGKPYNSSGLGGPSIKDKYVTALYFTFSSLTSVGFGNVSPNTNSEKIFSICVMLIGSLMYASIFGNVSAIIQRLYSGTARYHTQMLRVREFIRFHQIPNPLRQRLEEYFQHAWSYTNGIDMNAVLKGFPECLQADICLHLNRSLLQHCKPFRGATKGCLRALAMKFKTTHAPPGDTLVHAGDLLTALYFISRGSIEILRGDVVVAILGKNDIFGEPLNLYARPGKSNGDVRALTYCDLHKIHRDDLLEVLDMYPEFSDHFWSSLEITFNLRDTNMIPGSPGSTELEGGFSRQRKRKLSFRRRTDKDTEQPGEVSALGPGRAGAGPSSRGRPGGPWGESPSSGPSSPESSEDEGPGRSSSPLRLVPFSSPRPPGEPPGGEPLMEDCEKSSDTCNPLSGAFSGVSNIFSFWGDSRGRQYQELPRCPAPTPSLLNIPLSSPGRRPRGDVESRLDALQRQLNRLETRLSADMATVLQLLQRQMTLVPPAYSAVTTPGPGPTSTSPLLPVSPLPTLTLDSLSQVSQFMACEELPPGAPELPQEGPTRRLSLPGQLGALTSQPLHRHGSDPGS
Express it in µM; write the number only.

Consider the following illustrative entries.
What IC50 value was documented for this molecule, O=C(c1cnc(NC2Cc3ccccc3C2)nc1)N1CCC(COCc2cn[nH]n2)CC1 ? 7.93

What IC50 value was documented for this molecule, O=C(COCCc1cnn[nH]1)N1Cc2cnc(NC3Cc4ccccc4C3)nc2C1 [Control compound 1, reference compound] ? 6.69

With those in mind, consider the next molecule.
What IC50 value was documented for this molecule, O=C(c1cnc(NC2Cc3ccccc3C2)nc1)N1CC2(CC(OCc3c[nH]nn3)C2)C1 ? 13.4
